All figures here come from patent US20240067657A1.

Below are pIC50 values measured for Human cytomegalovirus DNA polymerase (Human cytomegalovirus, UniProt P08546).
Keep in mind that pIC50 stands for -log10 of concentration in molar terms.

# input Fill in the blank: the reported pIC50 of O=C(NCc1ccc(Cl)cc1)c1cc(O[C@H]2CCN3C(=O)OC[C@@H]3C2)c(C2CC2CO)cn1 (single isomer, unassigned) [Compound 156-2] is ____.
# output 8.10

# input Name the reported pIC50 value associated with the compound O=C(NCc1ccc(Cl)cc1)c1cc(O[C@H]2CCN3C(=O)OC[C@@H]3C2)c(-c2cscn2)cn1
# output 7.80

# input compound: CC(C)(N)C1CCN(c2cnc(C(=O)NCc3ccc(Cl)cc3)cc2O[C@H]2CCN3C(=O)OC[C@@H]3C2)C1 (stereo partly shown) ; wanted: its pIC50
# output 7.19

---
# input Entry N#Cc1cc(O[C@H]2CCN3C(=O)OC[C@@H]3C2)cc(C(=O)NCc2ccc(Cl)cc2)n1 : reported pIC50 = ?
# output 6.77

# input Look up pIC50 for this compound: CCCn1cc(-c2cnc(C(=O)NCc3ccc(Cl)cc3)cc2O[C@H]2CCN3C(=O)OC[C@@H]3C2)cn1 (racemic)
# output 7.29

# input Find the recorded pIC50 belonging to CC(=O)N1CCC(Oc2cc(C(=O)NCc3ccc(Cl)cc3)ncc2-c2cn(C)nn2)CC1 and report it.
# output 6.82

# input Please give the measured pIC50 for this compound: COC(C)(C)Cc1cnc(C(=O)NCc2ccc(Cl)cc2)cc1O[C@H]1CCN2C(=O)OC[C@@H]2C1
# output 7.62

# input For O=C(NCc1ccc(Cl)cc1)c1cc(O[C@H]2CCN3C(=O)OC[C@@H]3C2)c(CO)cn1 , what is its reported pIC50?
# output 7.34

# input Using the record for CN1CCN(c2cc(C(=O)NCc3ccc(Cl)cc3)ncc2C#N)[C@H](CF)C1 , report its pIC50.
# output 7.91

###

# key: entry, value: pEC50
# Test system: HCMV Strain AD169 in MRC-5 cells
# test_method_notes: Viral qPCR assay HCMV (V0/V1, V2/V3), EC50
# Assay type: cell-based
# experimental_conditions: Human betaherpesvirus 5, AD169, MRC5, viral qPCR assay of Example 191; read-out: HCMV Cell (EC50)
Keep it numeric: pEC50 is minus log10 of the concentration in mol/L.

Consider the reported pEC50 for these compounds:
# input // lookup pEC50 | system=HCMV Strain AD169 in MRC-5 cells | key= O=C(NCc1ccc(Cl)cc1)c1cc(O[C@H]2CCN3C(=O)OC[C@@H]3C2)c(N2CC3(CC(O)C3)C2)cn1
# output 6.24

# input Param readout = pEC50; param system = HCMV Strain AD169 in MRC-5 cells; param query = O=C(NCc1ccc(Cl)cc1)c1cc(O[C@@H]2CCN3C(=O)OC[C@H]3C2)c(-c2cn[nH]c2)cn1 (racemic) ; response: value
# output 6.59

# input What measured pEC50 is associated with O=C(NCc1ccc(Cl)cc1)c1cc(O[C@H]2CCN3C(=O)OC[C@@H]3C2)c(-c2cnn(C3COC3)c2)cn1 on HCMV Strain AD169 in MRC-5 cells?
# output 6.77

Alright, here's another compound for you.
# input Reported pEC50 for HCMV Strain AD169 in MRC-5 cells, given CC(=O)N1CCC(Oc2cc(C(=O)NCc3ccc(Cl)cc3)ncc2-c2cnsn2)CC1 ?
# output 5.74

###

The listing below reports pIC50 for compounds tested on UniProt:P09252.
Sequence (P09252 whole entry): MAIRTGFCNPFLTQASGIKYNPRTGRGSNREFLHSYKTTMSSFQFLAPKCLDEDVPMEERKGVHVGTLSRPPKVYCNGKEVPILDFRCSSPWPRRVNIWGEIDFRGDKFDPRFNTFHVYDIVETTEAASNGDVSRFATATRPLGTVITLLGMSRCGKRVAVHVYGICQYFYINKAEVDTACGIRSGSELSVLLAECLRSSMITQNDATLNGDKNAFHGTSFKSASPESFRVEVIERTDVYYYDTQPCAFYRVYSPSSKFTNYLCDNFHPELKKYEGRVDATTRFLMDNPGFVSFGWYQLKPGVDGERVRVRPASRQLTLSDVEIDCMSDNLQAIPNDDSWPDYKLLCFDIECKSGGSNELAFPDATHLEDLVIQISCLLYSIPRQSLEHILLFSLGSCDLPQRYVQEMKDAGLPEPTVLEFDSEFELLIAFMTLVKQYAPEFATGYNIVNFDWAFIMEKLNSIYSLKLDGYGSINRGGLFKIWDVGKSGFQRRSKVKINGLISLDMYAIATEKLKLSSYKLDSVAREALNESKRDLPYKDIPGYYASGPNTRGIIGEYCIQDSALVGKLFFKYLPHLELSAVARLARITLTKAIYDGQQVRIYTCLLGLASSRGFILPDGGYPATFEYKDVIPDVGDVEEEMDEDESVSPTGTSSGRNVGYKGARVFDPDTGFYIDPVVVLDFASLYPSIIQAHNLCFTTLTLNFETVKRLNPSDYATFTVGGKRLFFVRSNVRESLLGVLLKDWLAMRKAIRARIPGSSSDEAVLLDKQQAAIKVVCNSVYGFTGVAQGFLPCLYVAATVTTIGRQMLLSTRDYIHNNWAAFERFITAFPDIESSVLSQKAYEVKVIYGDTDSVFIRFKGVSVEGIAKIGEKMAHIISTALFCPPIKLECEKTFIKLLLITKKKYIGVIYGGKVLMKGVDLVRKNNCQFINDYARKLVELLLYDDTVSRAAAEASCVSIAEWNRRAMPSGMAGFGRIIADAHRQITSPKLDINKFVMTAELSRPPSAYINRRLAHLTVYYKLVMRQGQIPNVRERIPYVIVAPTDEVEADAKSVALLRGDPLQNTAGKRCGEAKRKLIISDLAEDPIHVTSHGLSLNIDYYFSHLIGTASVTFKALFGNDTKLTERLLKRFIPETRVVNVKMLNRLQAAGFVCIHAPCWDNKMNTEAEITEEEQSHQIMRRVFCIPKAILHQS
pIC50 is a log-scale quantity: -log10 of the concentration expressed in molar.

Guide cases for pIC50, answers given:
# input Looking for the measured pIC50 of Cc1ncc(-c2cc(O[C@H]3CCN4C(=O)OC[C@@H]4C3)cc(C(=O)NCc3ccc(Cl)cc3)n2)s1 [Compound 102] , can you help?
# output 6.93

# input Give its pIC50 value. Item: CC(C)CCn1cc(-c2cnc(C(=O)NCc3ccc(Cl)cc3)cc2O[C@H]2CCN3C(=O)OC[C@@H]3C2)cn1 (racemic) [Compound 9]
# output 6.94

Now look at this entry.
# input Which value of pIC50 has been reported for O=C(NCc1ccc(Cl)cc1)c1cc(O[C@H]2CCN3C(=O)NC[C@@H]3C2)c(-c2cnn(C(F)F)c2)cn1 (racemic) [Compound 163] in the records?
# output 6.98

###

# Tested on: VZV in MeWo or MRC5 cells
# test_method_notes: Viral qPCR assay VZV (V0/V1, V2/V3), EC50
# Format: cell-based
# experimental_conditions: Human alphaherpesvirus 3, MeWo, MEWO cells, 10%; read-out: VZV Cell (EC50) MEWO 10%
# Description: Viral qPCR Assays (V0/V1) MRC5 cells, Vero cells, and MeWo cells were obtained from ATCC and were maintained at 37° C./5% CO2/90% relative humidity in Minimal Essential Medium with 10% fetal bovine serum, […] L-glutamine, 100 units/ml penicillin and 100 ug/ml streptomycin. […] 7-point, serial 10-fold dilutions of a plasmid standard were run on each plate to generate a standard curve, and genome copies numbers were calculated by plotting experimental Ct onto linear regression of the standard curve. […]
readout_name: EC50 (nM)
Provide only the numeric value, understood in nM.

Past entries and their recorded results:
# input Value lookup for EC50; key = CS(=O)(=O)N1CCC(Oc2cc(C(=O)NCc3ccc(Cl)cc3)ncc2Cl)CC1 [Compound 151]
# output 1410

# input // returns reported EC50 for input O=C(NCc1ccc(Cl)cc1)c1cc(O[C@H]2CCN3C(=O)OC[C@@H]3C2)c(CN2CCCOCC2)cn1 [Compound 138]
# output 198

# input Name the reported EC50 value associated with the compound N#Cc1ccc(CNC(=O)c2cc(O[C@H]3CCN4C(=O)OC[C@@H]4C3)c(-c3cnn(C(F)F)c3)cn2)c(F)c1 [Compound 84]
# output 66.8

Further cases:
# input For the compound shown here, O=C(NCc1ccc(Cl)nc1)c1cc(O[C@H]2CCN3C(=O)OC[C@@H]3C2)c(-c2cnn(C(F)F)c2)cn1 [Compound 86] , give the reported EC50.
# output 825

# input Quick check: EC50 of CC(C)CCn1cc(-c2cnc(C(=O)NCc3ccc(Cl)cc3)cc2O[C@H]2CCN3C(=O)OC[C@@H]3C2)cn1 (racemic) [Compound 9] ?
# output 859

# input Please look up its EC50: CC(C)Cn1cc(-c2cnc(C(=O)NCc3ccc(Cl)cc3)cc2O[C@H]2CCN3C(=O)OC[C@@H]3C2)cn1 (racemic) [Compound 11]
# output 712

# input I am curious: what EC50 value has been reported for Cn1cc(-c2cnc(C(=O)NCc3ccc(Cl)cc3)cc2OC2CCC(C#N)CC2)cn1 (centres unmarked) [Compound 168] ?
# output 590

# input Fill in the blank: the reported EC50 of O=C(NCc1ccc(F)c(F)c1F)c1cc(O[C@H]2CCN3C(=O)OC[C@@H]3C2)c(-c2cnn(C(F)F)c2)cn1 [Compound 87] is ____.
# output 441

# input Look up EC50 for this compound: Cc1ncc(-c2cnc(C(=O)NCc3ccc(Cl)cc3)cc2O[C@H]2CCN3C(=O)OC[C@@H]3C2)s1 [Compound 42]
# output 48.5

###

# System: HSV-1 Strain F in Vero or MRC5 cells
# test_method_notes: Viral qPCR assay HSV-1 (V0/V1, V2/V3), EC50
# Assay type: cell-based
# experimental_conditions: Human alphaherpesvirus 1, Vero, read-out: HSV1 Cell (EC50) VERO 10%
Measured pEC50 accompanies every entry in the list below.
// pEC50 is dimensionless: -log10 of concentration (M)

Reference set (2 entries):
# input Notebook entry, HSV-1 Strain F in Vero or MRC5 cells assay: pEC50 of C[C@@H]1CN(C)CCN1c1cc(C(=O)NCc2ccc(Cl)cc2)ncc1OCC(F)(F)F = ?
# output 5.66

# input GET /values?readout=pEC50&system=HSV-1 Strain F in Vero or MRC5 cells&item= COc1cnc(C(=O)NCc2ccc(Cl)cc2)cc1O[C@H]1CCN2C(=O)OC[C@@H]2C1
# output 6.47

***
# input Which pEC50 is reported with HSV-1 Strain F in Vero or MRC5 cells for this entry: Cn1cc(-c2cnc(C(=O)NCc3ccc(Cl)cc3)cc2O[C@H]2CCN3C(=O)COC[C@@H]3C2)cn1 (racemic) ?
# output 6.65

###

# Tested on: HSV-1 Strain F in Vero or MRC5 cells
# test_method_notes: Viral qPCR assay HSV-1 (V0/V1, V2/V3), EC50
# Format: cell-based
# experimental_conditions: Human alphaherpesvirus 1, Vero, VERO cells, 10%; read-out: HSV1 Cell (EC50) VERO 10%
readout_name: pEC50
# reply with the number alone; pEC50 is -log10 of concentration in mol/L

Please review the following examples before continuing.
# input Looking for the measured pEC50 of O=C(NCc1ccc(Cl)cc1)c1cc(O[C@H]2CCN3C(=O)OC[C@@H]3C2)c(-c2ccn(C(F)F)n2)cn1 , can you help?
# output 6.92

# input What value of pEC50 has been recorded for this entry: O=C(NCc1ccc(Cl)cc1)c1cc(O[C@H]2CCN3C(=O)OC[C@@H]3C2)c(CN2CCOCC2)cn1
# output 6.25

# input Need pEC50 of Cc1ccn(-c2cnc(C(=O)NCc3ccc(Cl)cc3)cc2O[C@H]2CCN3C(=O)OC[C@@H]3C2)n1 , thanks.
# output 6.24

# input Can you share its pEC50? I mean this molecule: Cn1ccc(-c2cnc(C(=O)NCc3ccc(Cl)cc3)cc2O[C@H]2CCN3C(=O)OC[C@@H]3C2)n1
# output 6.88

# input Could you tell me which pEC50 is on file for CC(C)Cn1cc(-c2cnc(C(=O)NCc3ccc(Cl)cc3)cc2O[C@H]2CCN3C(=O)OC[C@@H]3C2)cn1 (racemic) ?
# output 6.09

---
# input Which value of pEC50 has been reported for O=C(NCc1ccc(Cl)cc1)c1cc(O[C@H]2CCN3C(=O)OC[C@@H]3C2)c(CN2CCC3OCCC32)cn1 (mixture of isomers) in the records?
# output 6.34

# input Requested read-out: pEC50. Entry: Cc1cnc(C(=O)NCc2ccc(Cl)cc2)cc1O[C@H]1CCN2C(=O)OC[C@@H]2C1
# output 6.57
